System: T1, Human serum albumin (human, UniProt P02768 25-609)
T1 construct: bought; immobilised on a CM5 chip by amine coupling; also called Human SA
Method Notes: SPR, SA on chip, VHH 300 nM, 25 C
Quantity Kind: koff (s⁻¹)
Use s⁻¹ as the unit, but write only the number.

In the examples that follow, each entry is paired with its recorded koff.
[
  {
    "Binder": "VHH moiety 20 (MC6.1C22-P103) (VHH, name printed without the new residue) VHH: EVQLLESGGGLVQPGGSLRLSCAASGRYIDETAVAWFRQAPGKEREFVAGIGGGVDITYYADSVKGRFTISRDNSKNTLYLQMNSLRPEDTAVYYCAARPGRELITSKVADLYPYWGQGTLVTVSS",
    "Quantity Kind": "koff",
    "Quantitative Result": 0.0092
  },
  {
    "Binder": "VHH moiety 14 (MC6.1C22-Y59Q) (VHH) VHH: EVQLLESGGGLVQPGGSLRLSCAASGRYIDETAVAWFRQAPGKEREFVAGIGGGVDITQYADSVKGRFTISRDNSKNTLYLQMNSLRPEDTAVYYCAARPGRPLITSKVADLYPYWGQGTLVTVSS",
    "Quantity Kind": "koff",
    "Quantitative Result": 0.013
  },
  {
    "Binder": "VHH moiety 21 (MC6.1C22-P103Q) (VHH) VHH: EVQLLESGGGLVQPGGSLRLSCAASGRYIDETAVAWFRQAPGKEREFVAGIGGGVDITYYADSVKGRFTISRDNSKNTLYLQMNSLRPEDTAVYYCAARPGRQLITSKVADLYPYWGQGTLVTVSS",
    "Quantity Kind": "koff",
    "Quantitative Result": 0.0025
  }
]

# input for lookup
Q. Recorded koff of VHH moiety 22 (MC6.1C22-P103S) (VHH) VHH: EVQLLESGGGLVQPGGSLRLSCAASGRYIDETAVAWFRQAPGKEREFVAGIGGGVDITYYADSVKGRFTISRDNSKNTLYLQMNSLRPEDTAVYYCAARPGRSLITSKVADLYPYWGQGTLVTVSS , please.
A. 0.0028
